ATTRIBUTE_MEASURED: melting point

Request the reported melting point associated with CCCOC(C(=O)O)c1ccc2c(c1)C(C)(C)CCC2(C)C (racemic)
84 to 86 °C

Request the reported melting point associated with `c1ccc(-c2cncc(CN3CCN(c4ccccc4)CC3)c2)cc1`
83 to 85 °C

Request the reported melting point associated with `CCOC(=O)c1cnc(SC)nc1NCc1ccc(OC)c([N+](=O)[O-])c1`
99 to 100 °C

Request the reported melting point associated with `CC(C)(C)c1cc(CN(c2cccnc2)S(C)(=O)=O)cc(C(C)(C)C)c1O`
133 to 134 °C

Request the reported melting point associated with OCC1OC(Sc2ccccc2)C(OCc2ccccc2)C(OCc2ccccc2)C1OCc1ccccc1 (stereo not given)
127 to 129 °C

----------
ATTRIBUTE_MEASURED: melting point (°C)
Dear colleague, please return just the value in °C, with no unit written.

Request the reported melting point associated with `CCOC(=O)c1c(Cl)nc2cscc2c1Cl`
79

Request the reported melting point associated with `CCCc1nnc2n1-c1ccccc1CS2`
114

Request the reported melting point associated with `Cn1ccc2cc(/C=C/C3=CCN(Cc4ccccc4)CC3)ccc21`
138

----------
ATTRIBUTE_MEASURED: melting point

Request the reported melting point associated with CCNC(C)Cc1ccc(O)cn1 (centres undefined)
75 to 79 °C

Request the reported melting point associated with `CCNC(=O)Nc1ccc2c(c1)C(=O)N(CCO[N+](=O)[O-])CO2`
142 to 144 °C

Request the reported melting point associated with `CCC(=O)N1CCC(NC(=O)Nc2ccc(Cl)cc2)CC1`
225 to 226 °C

Request the reported melting point associated with `O=C(O)C[C@H]1CC[C@H](Sc2nc(C3OCCO3)n(Cc3cc4c(cc3Cl)OCO4)c2C(=O)O)CC1`
145 °C

Request the reported melting point associated with O=C1Nc2ccccc2N(C(=O)CN2CCCC(CN3CCCCC3)C2)c2ccccc21 (centres undefined)
150 to 152 °C

Request the reported melting point associated with `O=C(c1ccccc1)c1cc(-c2ccccc2)c(OS(=O)(=O)c2ccc(C(=O)O)c(O)c2)c(-c2ccccc2)c1`
217 °C

Request the reported melting point associated with `CC1(C)CCC(C)(C)c2cc(-c3ccc(O)c(-c4ccc(C(=O)O)cc4)c3)ccc21`
264 to 267 °C

Request the reported melting point associated with `CCOC(=O)C=Cc1ccccc1NC(=O)c1ccc(OCCCCc2ccccc2)cc1`
129 to 131 °C

Request the reported melting point associated with CC(C#Cc1cccc(OCc2ccccc2)c1)N(O)C(N)=O (centres undefined)
151 to 153 °C

----------
ATTRIBUTE_MEASURED: melting point

Request the reported melting point associated with `Nc1cccc(Cn2c(-c3ccc(-c4cncnc4)cc3)ccc2-c2ccccc2Cl)n1`
163 to 164 °C

Request the reported melting point associated with `CCOC(=O)c1ccc(O[Si](C)(C)C(C)(C)C)c(OC)c1`
103 °C

Request the reported melting point associated with `CCCCCCOc1ccc(-c2cc(CBr)ccc2CBr)cc1`
38.5 to 40.5 °C

Request the reported melting point associated with `CCCCNC(=O)NS(=O)(=O)c1ccn(C)n1`
168 to 169 °C

Request the reported melting point associated with O=c1c2c(c3cccnc3n1-c1ccccc1)OC(CO)C2 (configuration not stated)
267 to 268 °C

Request the reported melting point associated with CN1CC(CCCl)Oc2c(ccc3ccccc23)C1=S (configuration not stated)
167 to 170 °C

Request the reported melting point associated with `COc1cc2cc(CO)c(CO)c(-c3ccnc(-n4c(=O)cc(C(=O)N(CCO)CCO)c5ccccc54)c3)c2cc1OC`
65 to 68 °C

Request the reported melting point associated with `CCCc1cc(=O)n2cccc(O)c2n1`
95 to 96 °C

Request the reported melting point associated with `O=S(=O)(Cl)CCc1ccc(Cl)cc1`
87 to 87.5 °C

Request the reported melting point associated with `Cc1ccc(S(=O)(=O)OCCCCCCCl)cc1`
27 to 28 °C

Request the reported melting point associated with c1ccc2c(c1)CNC1CC2c2ccccc21 (configuration not stated)
115 to 117 °C

Request the reported melting point associated with O=C1N(Cc2ccc(C(F)(F)F)o2)c2cccc(-c3ccoc3)c2C12COc1cc3c(cc12)CCO3 (configuration not stated)
167 to 169 °C

Request the reported melting point associated with `CCCCCOC(=O)c1cc(NC(=O)C2=C(C)OCCS2)ccc1Cl`
65 to 68 °C

Request the reported melting point associated with `Cc1ccc(S(=O)(=O)N=c2[nH]c3ccccc3s2)cc1`
246 to 249 °C

Request the reported melting point associated with `COc1cccc(N(C)C(=O)Oc2ccc(C(F)(F)F)cc2)n1`
85 to 86 °C

Request the reported melting point associated with `COc1cccc(NC(=O)C23CC4CC(CC(C4)C2)C3)c1`
172 to 174 °C

Request the reported melting point associated with COc1cc(C(C)C)ccc1C1COc2c(C)c(C)c(N)c(C)c21 (configuration not stated)
120 to 121 °C

Request the reported melting point associated with CCCC(=O)NC1C=CC(CO)C1 (configuration not stated)
71 to 72 °C

Request the reported melting point associated with Cc1c(C)c2c(c(C)c1NC(=O)CC(C)(C)C)C(O)(C1CCCCC1)C(C)(C)O2 (configuration not stated)
170 to 171 °C

Request the reported melting point associated with `O=CNc1ccc(S(=O)(=O)C[N+](=O)[O-])cc1`
192 to 193 °C

Request the reported melting point associated with `O=C1CN(c2cccc(Cl)c2)NC(=O)N1`
224 to 226 °C

Request the reported melting point associated with `COc1ccc2[nH]cc(C3=CCN(C[C@H](O)COc4cccc5[nH]ccc45)CC3)c2c1`
105 to 110 °C

----------
ATTRIBUTE_MEASURED: melting point

Request the reported melting point associated with `CC(C)N(CCNc1nc(Nc2cccc(NS(C)(=O)=O)c2)nc2[nH]cnc12)C(C)C`
226 to 230 °C

Request the reported melting point associated with `FC(F)(F)c1nnc(Sc2ccc(Cl)c(Cl)c2)s1`
46 °C

Request the reported melting point associated with COc1cc2[nH]c(=O)n(CC(C)S)c(=O)c2cc1OC (stereo unspecified)
262 to 264 °C

Request the reported melting point associated with `COC(=O)CCCOc1cc(C(C)C)c2c(c1)S(=O)(=O)N(COC(=O)c1ccccc1)C2=O`
122 to 124 °C

Request the reported melting point associated with CN1C(=O)C2C3CCC(C3)C2(c2cccc(Br)c2)C1=O (stereo unspecified)
105 to 107 °C

Request the reported melting point associated with `O=Cc1cccc2nnc(-c3ccccc3)cc12`
156 to 157 °C

Request the reported melting point associated with CCCCC(C)C(C=Cc1ccc(OCc2ccccc2)c(OCc2ccccc2)c1)OC (stereo unspecified)
36 to 38 °C

Request the reported melting point associated with CC1C(=O)NC(=O)N(Cc2ccccc2)C1=O (stereo unspecified)
128 to 129 °C

Request the reported melting point associated with `Cc1ccc(C(=O)c2cccnc2C(=O)O)cc1`
168 to 170 °C

Request the reported melting point associated with `CCOC(=O)c1cc(CC)sc1Nc1cc(F)c(F)cc1[N+](=O)[O-]`
105 °C

Request the reported melting point associated with `CSC(C)(C)c1nnc(N)s1`
195 to 197 °C

----------
Would you kindly list melting point for each of these compounds?

Request the reported melting point associated with CCC1(Br)Cc2cc(OCC(=O)O)c(C)c(C)c2C1=O (stereo not given)
136 to 139 °C

Request the reported melting point associated with `CC(C)(C)OC(=O)c1ncn2c1[C@@H]1CCCN1C(=O)c1cc(F)ccc1-2`
154 to 155 °C

Request the reported melting point associated with Cc1ccc(C(=O)c2cccc(C(C)C#N)c2)cc1 (stereo not given)
52 to 55 °C

Request the reported melting point associated with `CN1CCN(c2ccc3nc(-c4ccc(F)cc4)c(-c4ccncc4)n3n2)CC1`
250 °C

Request the reported melting point associated with `CC(C)CCNC(Nc1ccccc1)=C(C#N)C#N`
183 to 185 °C

Request the reported melting point associated with `Oc1ccc(Oc2ccc(C(F)(F)F)cc2Cl)cc1`
55 to 56 °C

Request the reported melting point associated with COc1ccc(S(=O)(=O)Nc2ccccc2-c2ccc(F)cc2C(C)O)cc1 (stereo not given)
137 to 138 °C

Request the reported melting point associated with `CC(C)(C)c1ccc(Sc2cccc(C=C3SC(=S)NC3=O)c2)cc1`
188 to 190 °C

Request the reported melting point associated with `COc1ccc(-c2cc(-c3cc(C)ns3)c(=O)n(C)c2-c2ccncc2)cc1`
195 to 198 °C

Request the reported melting point associated with `C[C@@]12CCCN1[C@@H](C(Cl)(Cl)Cl)OC2=O`
55 to 57 °C

Request the reported melting point associated with `CCNc1nc(N)nc(-c2ccccc2)c1-c1ccc(=O)n(C(C)C)n1`
208 to 209 °C

Request the reported melting point associated with C=C(CC)C(=O)c1ccc(OC(C)C(=O)O)c(Cl)c1Cl (stereo not given)
115 to 119 °C

Request the reported melting point associated with `CCOC(=O)CN1c2ccccc2N(C)C(=O)c2cccnc21`
99 to 100 °C

Request the reported melting point associated with `O=C(O)c1csc2ccc(OS(=O)(=O)c3ccccc3)cc12`
202 to 203 °C

Request the reported melting point associated with COc1ccc(S(=O)(=O)C(C)(Cc2cccnc2)C(=O)NO)cc1 (stereo not given)
98 °C

Request the reported melting point associated with `CCOCc1nc2c(N)nc3cc(N4CCC4=O)ccc3c2n1CCCOC(C)C`
185 to 186 °C

Request the reported melting point associated with `CCN(CC)c1ccc2nc3c4ccccc4c(=Nc4ccc5ccccc5n4)cc-3oc2c1`
234 to 236 °C

Request the reported melting point associated with `CCCCc1nn(-c2ccccc2C(F)(F)F)c(=O)n1Cc1ccc(-c2ccccc2S(=O)(=O)NC(=O)C(F)(F)F)cc1`
125 to 127 °C

Request the reported melting point associated with `O=C(O)Cc1c(C(=O)c2ccc(Cl)cn2)[nH]c2cc(Cl)ccc12`
242 to 244 °C

Request the reported melting point associated with `COC(=O)Cn1c(C(=O)NC(N)=S)cc2cc(C)cc(C)c21`
226 to 231 °C
